These measurements were taken from patent US8895756B2.

assay: physchem; conditions: water with mannitol 25.5 mg/mL, 5 °C, water, thermodynamic from solid
Readout kind: solubility at 0 h

Fill blank: measured solubility at 0 h of the molecule Cl.Cn1c(CCCC(=O)O)nc2cc(N(CCCl)CCCl)ccc21 [bendamustine] is ____.
> 15 mg/mL

====

assay: physchem; details: alcohol/water solution with mannitol, 5 °C, aqueous with cosolvent or surfactant or cyclodextrin
Readout kind: solubility at 3 h

Fill blank: measured solubility at 3 h of the compound `Cl.Cn1c(CCCC(=O)O)nc2cc(N(CCCl)CCCl)ccc21` is ____.
> 15 mg/mL

====

assay: physchem; details: alcohol/water solution with mannitol 25.5 mg/mL, 5 °C, aqueous with cosolvent or surfactant or cyclodextrin
Readout kind: solubility at 3 h

Fill blank: measured solubility at 3 h of the molecule `Cl.Cn1c(CCCC(=O)O)nc2cc(N(CCCl)CCCl)ccc21` is ____.
> 15 mg/mL

====

assay: physchem; details: alcohol/water solution with mannitol, 5 °C, water, thermodynamic from solid
Readout kind: solubility at 3 h

Fill blank: measured solubility at 3 h of the compound Cl.Cn1c(CCCC(=O)O)nc2cc(N(CCCl)CCCl)ccc21 [bendamustine] is ____.
> 15 mg/mL

====

experiment: physchem; conditions: alcohol/water solution with mannitol 25.5 mg/mL, 5 °C, aqueous with cosolvent or surfactant or cyclodextrin, thermodynamic from solid
Readout kind: solubility at 0 h

Fill blank: measured solubility at 0 h of the compound `Cl.Cn1c(CCCC(=O)O)nc2cc(N(CCCl)CCCl)ccc21` is ____.
> 15 mg/mL

====

experiment: physchem; details: alcohol/water solution with mannitol, 5 °C, aqueous with cosolvent or surfactant or cyclodextrin, thermodynamic from solid
Readout kind: solubility at 0 h

Fill blank: measured solubility at 0 h of the compound `Cl.Cn1c(CCCC(=O)O)nc2cc(N(CCCl)CCCl)ccc21` is ____.
> 15 mg/mL

====

assay: physchem; conditions: alcohol/water solution with mannitol 25.5 mg/mL, 5 °C, aqueous with cosolvent or surfactant or cyclodextrin, thermodynamic from solid
Readout kind: solubility at 6 h

Fill blank: measured solubility at 6 h of the compound `Cl.Cn1c(CCCC(=O)O)nc2cc(N(CCCl)CCCl)ccc21` is ____.
> 15 mg/mL

====

test: physchem; settings: alcohol/water solution with mannitol 25.5 mg/mL, 5 °C, aqueous with cosolvent or surfactant or cyclodextrin
Readout kind: solubility at 0 h

Fill blank: measured solubility at 0 h of the molecule `Cl.Cn1c(CCCC(=O)O)nc2cc(N(CCCl)CCCl)ccc21` is ____.
> 15 mg/mL

====

assay: physchem; details: alcohol/water solution with mannitol 25.5 mg/mL, 5 °C, aqueous with cosolvent or surfactant or cyclodextrin
Readout kind: solubility at 6 h

Fill blank: measured solubility at 6 h of the compound `Cl.Cn1c(CCCC(=O)O)nc2cc(N(CCCl)CCCl)ccc21` is ____.
> 15 mg/mL

====

assay: physchem; details: alcohol/water solution with mannitol, 5 °C, water, thermodynamic from solid
Readout kind: solubility at 0 h

Fill blank: measured solubility at 0 h of the molecule Cl.Cn1c(CCCC(=O)O)nc2cc(N(CCCl)CCCl)ccc21 [bendamustine] is ____.
> 15 mg/mL

====

assay: physchem; conditions: alcohol/water solution with mannitol, 5 °C, aqueous with cosolvent or surfactant or cyclodextrin
Readout kind: solubility at 24 h

Fill blank: measured solubility at 24 h of the compound `Cl.Cn1c(CCCC(=O)O)nc2cc(N(CCCl)CCCl)ccc21` is ____.
> 15 mg/mL
